- TEST_METHOD_NOTES: Audiogenic convulsive side effects (sound challenge: tonic convulsions and fatalities)
- CONDITION_DETAILS: mouse, in vivo, ip
OBSERVABLE: LD50 (mg/kg)
# value in mg/kg; strip the unit string

// known answers, use as guide
COMPOUND: Cc1nnc2c3c(c(N4CCN(C)CC4)nn12)C1CCC3CC1
OBSERVABLE: LD50
TEST_RESULT: 147
--
COMPOUND: Cc1c(N2CCOCC2)nn2cnnc2c1C
OBSERVABLE: LD50
TEST_RESULT: 272
--
COMPOUND: Cc1nnc2c3c(c(N4CCCCC4)nn12)CCCC3
OBSERVABLE: LD50
TEST_RESULT: 139
--
COMPOUND: Cc1cc2nnc(C)n2nc1N1CCOCC1
OBSERVABLE: LD50
TEST_RESULT: 148
--
COMPOUND: CN1CCN(c2nn3cnnc3c3c2CCCC3)CC1
OBSERVABLE: LD50
TEST_RESULT: 134
--
COMPOUND: Cc1nnc2c3c(c(N4CCCC4)nn12)C1CCC3C1 (centres unmarked)
OBSERVABLE: LD50
TEST_RESULT: 85

// next entry
IN: Entry c1nnc2c3c(c(N4CCCCC4)nn12)C1CCC3C1 (centres unmarked) needs its LD50 filled in; supply it.
OUT: 98

* * *

- TEST_METHOD_NOTES: 30 minute LD50 (acute toxicity without sound)
- CONDITION_DETAILS: mouse, in vivo, ip
OBSERVABLE: LD50 at 0.5 h (mg/kg)
# value in mg/kg; strip the unit string

// known answers, use as guide
COMPOUND: c1nnc2c3c(c(N4CCCCC4)nn12)C1CCC3C1 (stereo not shown)
OBSERVABLE: LD50 at 0.5 h
QUANTITY_UNIT: mg/kg
TEST_RESULT: 108

COMPOUND: Cc1cc2nncn2nc1N1CCCC1
OBSERVABLE: LD50 at 0.5 h
QUANTITY_UNIT: mg/kg
TEST_RESULT: 272

COMPOUND: c1nnc2c3c(c(N4CCCC4)nn12)CCCC3
OBSERVABLE: LD50 at 0.5 h
QUANTITY_UNIT: mg/kg
TEST_RESULT: 191

IN: Entry CN1CCN(c2nn3cnnc3c3c2CCCC3)CC1 needs its LD50 at 0.5 h filled in; supply it.
OUT: 147

IN: Entry Cc1cc2nnc(C)n2nc1N1CCOCC1 needs its LD50 at 0.5 h filled in; supply it.
OUT: 228

IN: Entry Cc1nnc2c3c(c(N4CCCC4)nn12)C1CCC3C1 (stereo not shown) needs its LD50 at 0.5 h filled in; supply it.
OUT: 85

IN: Entry Cc1cc2nncn2nc1N1CCOCC1 needs its LD50 at 0.5 h filled in; supply it.
OUT: 327

IN: Entry c1nnc2c3c(c(N4CCOCC4)nn12)C1CCC3CC1 needs its LD50 at 0.5 h filled in; supply it.
OUT: 118

IN: Entry Cc1cc2nncn2nc1N1CCN(C)CC1 needs its LD50 at 0.5 h filled in; supply it.
OUT: 272

IN: Entry Cc1nnc2c3c(c(N4CCN(C)CC4)nn12)C1CCC3CC1 needs its LD50 at 0.5 h filled in; supply it.
OUT: 147

IN: Entry CN1CCN(c2nn3cnnc3c3c2C2CCC3C2)CC1 (stereo not shown) needs its LD50 at 0.5 h filled in; supply it.
OUT: 175

IN: Entry c1nnc2c3c(c(N4CCCCC4)nn12)CCCC3 needs its LD50 at 0.5 h filled in; supply it.
OUT: 298

IN: Entry Cc1nnc2c3c(c(N4CCOCC4)nn12)CCCC3 needs its LD50 at 0.5 h filled in; supply it.
OUT: 149

IN: Entry Cc1nnc2c3c(c(N4CCN(C)CC4)nn12)C1CCC3C1 (stereo not shown) needs its LD50 at 0.5 h filled in; supply it.
OUT: 147

IN: Entry c1nnc2c3c(c(N4CCCC4)nn12)C1CCC3CC1 needs its LD50 at 0.5 h filled in; supply it.
OUT: 136

IN: Entry Cc1nnc2c3c(c(N4CCCCC4)nn12)CCCC3 needs its LD50 at 0.5 h filled in; supply it.
OUT: 139

IN: Entry Cc1c(N2CCCCC2)nn2cnnc2c1C needs its LD50 at 0.5 h filled in; supply it.
OUT: 404

IN: Entry CN1CCN(c2nn3cnnc3c3c2C2CCC3CC2)CC1 needs its LD50 at 0.5 h filled in; supply it.
OUT: 147

IN: Entry Cc1nnc2c3c(c(N4CCCC4)nn12)C1CCC3CC1 needs its LD50 at 0.5 h filled in; supply it.
OUT: 141

IN: Entry Cc1nnc2c3c(c(N4CCOCC4)nn12)C1CCC3C1 (stereo not shown) needs its LD50 at 0.5 h filled in; supply it.
OUT: 86

IN: Entry c1nnc2c3c(c(N4CCCC4)nn12)C1CCC3C1 (stereo not shown) needs its LD50 at 0.5 h filled in; supply it.
OUT: 136
